tested on: Escherichia coli TOP10; experiment: shrunken log2 fold change of peptide-encoding DNA abundance (4.5 h post-induction vs induction); higher = less antimicrobial activity (less host growth inhibition); settings: time post-induction: 4.5 h; library: site-saturation at positions 5, 18, 19, 20
Label Yes for high-side shrunken log2 fold change (at or above -0.2) and No for low-side shrunken log2 fold change (below it).

These recorded examples may help you get a feel for the data.
RRIRQRPPRLPRPRPRPGRRPRP; Yes
RRIRDRPPRLPRPRPRPRKMPRP; Yes
RRIRFRPPRLPRPRPRPIWGPRP; Yes
RRIRKRPPRLPRPRPRPNNGPRP; No
RRIRQRPPRLPRPRPRPNCCPRP; Yes

Please turn your attention to the following entry.
// query Assess whether reported shrunken log2 fold change for `RRIRERPPRLPRPRPRPWSCPRP` sits at -0.2 or higher.
// result Yes

----------
Listed here: items and their measured shrunken log2 fold change.
tested on: Escherichia coli TOP10; test: shrunken log2 fold change of peptide-encoding DNA abundance (4.5 h post-induction vs induction); higher = less antimicrobial activity (less host growth inhibition); settings: time post-induction: 4.5 h; library: site-saturation at positions 5, 18, 19, 20
Keep the answer to the number alone.

RRIRLRPPRLPRPRPRPFRGPRP; -0.0479
RRIRWRPPRLPRPRPRPYSSPRP; -1.07
RRIRPRPPRLPRPRPRPPGDPRP; 0.567

// query Please give the measured shrunken log2 fold change for this sequence: `RRIRLRPPRLPRPRPRPICFPRP`
// result 0.104

// query // next record `RRIRLRPPRLPRPRPRPIHEPRP`
// result 0.139

// query // next record `RRIRQRPPRLPRPRPRPLFRPRP`
// result -0.227

// query // next record `RRIRRRPPRLPRPRPRPFCQPRP`
// result -0.252

// query // next record `RRIRKRPPRLPRPRPRPFVWPRP`
// result -0.0438

// query // next record `RRIRVRPPRLPRPRPRPKMHPRP`
// result -0.198

----------
Listed here: items and their measured shrunken log2 fold change.
test system: Escherichia coli TOP10; assay: shrunken log2 fold change of peptide-encoding DNA abundance (4.5 h post-induction vs induction); higher = less antimicrobial activity (less host growth inhibition); conditions: time post-induction: 4.5 h; library: site-saturation at positions 5, 18, 19, 20
Keep the answer to the number alone.

Some sequences with known shrunken log2 fold change results, for comparison:
RRIRSRPPRLPRPRPRPFNPPRP; -0.28
RRIRLRPPRLPRPRPRPQQLPRP; -0.106

Let us move to another entry and its shrunken log2 fold change.
// query Please give the measured shrunken log2 fold change for this sequence: `RRIRLRPPRLPRPRPRPVHGPRP`
// result 0.0748

----------
system: Escherichia coli TOP10; assay: shrunken log2 fold change of peptide-encoding DNA abundance (4.5 h post-induction vs induction); higher = less antimicrobial activity (less host growth inhibition); settings: time post-induction: 4.5 h; library: site-saturation at positions 5, 18, 19, 20
Label met for high-side shrunken log2 fold change (at or above 0.09) and not met for low-side shrunken log2 fold change (below it).

These recorded examples may help you get a feel for the data.
RRIRKRPPRLPRPRPRPCVMPRP; not met
RRIRERPPRLPRPRPRPVHCPRP; not met
RRIRSRPPRLPRPRPRPVRMPRP; not met
RRIRVRPPRLPRPRPRPRRHPRP; met

// query Assess whether reported shrunken log2 fold change for `RRIRNRPPRLPRPRPRPNANPRP` sits at 0.09 or higher.
// result not met

// query // next record `RRIRGRPPRLPRPRPRPKLHPRP`
// result met

// query // next record `RRIRFRPPRLPRPRPRPDDMPRP`
// result not met

// query // next record `RRIRVRPPRLPRPRPRPSHCPRP`
// result met

// query // next record `RRIRYRPPRLPRPRPRPIFSPRP`
// result not met

// query // next record `RRIRDRPPRLPRPRPRPWFWPRP`
// result not met

// query // next record `RRIRWRPPRLPRPRPRPEVCPRP`
// result not met

// query // next record `RRIRERPPRLPRPRPRPRFCPRP`
// result not met

// query // next record `RRIRDRPPRLPRPRPRPLIKPRP`
// result met

// query // next record `RRIRARPPRLPRPRPRPASDPRP`
// result met

// query // next record `RRIRGRPPRLPRPRPRPCTLPRP`
// result met

// query // next record `RRIRNRPPRLPRPRPRPFPPPRP`
// result not met

// query // next record `RRIRWRPPRLPRPRPRPPADPRP`
// result met

// query // next record `RRIRDRPPRLPRPRPRPLIRPRP`
// result not met

----------
tested on: Escherichia coli TOP10; assay: shrunken log2 fold change of peptide-encoding DNA abundance (4.5 h post-induction vs induction); higher = less antimicrobial activity (less host growth inhibition); conditions: time post-induction: 4.5 h; library: site-saturation at positions 5, 18, 19, 20
test_readout: shrunken log2 fold change

RRIRIRPPRLPRPRPRPFHLPRP; -0.0356
RRIRQRPPRLPRPRPRPWGDPRP; -0.138
RRIRCRPPRLPRPRPRPLDYPRP; -0.75
RRIRARPPRLPRPRPRPSTHPRP; -0.0532
RRIRTRPPRLPRPRPRPQHGPRP; -0.187
RRIRIRPPRLPRPRPRPPRQPRP; 0.337
RRIRPRPPRLPRPRPRPAVTPRP; 0.0942
RRIRPRPPRLPRPRPRPLYVPRP; -0.433

// query Please give the measured shrunken log2 fold change for this sequence: `RRIRPRPPRLPRPRPRPYIYPRP`
// result -0.518

// query // next record `RRIRFRPPRLPRPRPRPSEFPRP`
// result -0.301

// query // next record `RRIRERPPRLPRPRPRPFTIPRP`
// result -0.162

// query // next record `RRIRFRPPRLPRPRPRPHHVPRP`
// result -0.323

----------
system: Escherichia coli TOP10; assay: shrunken log2 fold change of peptide-encoding DNA abundance (4.5 h post-induction vs induction); higher = less antimicrobial activity (less host growth inhibition); conditions: time post-induction: 4.5 h; library: site-saturation at positions 5, 18, 19, 20
Label YES for high-side shrunken log2 fold change (at or above -0.02) and NO for low-side shrunken log2 fold change (below it).

RRIRCRPPRLPRPRPRPKLTPRP; NO

// query Assess whether reported shrunken log2 fold change for `RRIRERPPRLPRPRPRPHDSPRP` sits at -0.02 or higher.
// result YES

// query // next record `RRIRRRPPRLPRPRPRPVVCPRP`
// result YES

// query // next record `RRIRNRPPRLPRPRPRPSPGPRP`
// result YES

// query // next record `RRIRSRPPRLPRPRPRPQSFPRP`
// result NO

// query // next record `RRIRFRPPRLPRPRPRPDQTPRP`
// result YES

// query // next record `RRIRQRPPRLPRPRPRPKQNPRP`
// result YES

// query // next record `RRIRFRPPRLPRPRPRPTMSPRP`
// result NO

// query // next record `RRIRSRPPRLPRPRPRPNGRPRP`
// result NO

----------
system: Escherichia coli TOP10; assay: shrunken log2 fold change of peptide-encoding DNA abundance (4.5 h post-induction vs induction); higher = less antimicrobial activity (less host growth inhibition); settings: time post-induction: 4.5 h; library: site-saturation at positions 5, 18, 19, 20
Please use the following shrunken log2 fold change ranges when assigning a class: lowest: < -0.4; middle: ≥ -0.4 and < -0.1; highest: ≥ -0.1

These recorded examples may help you get a feel for the data.
RRIRCRPPRLPRPRPRPDMSPRP; middle
RRIRSRPPRLPRPRPRPHRDPRP; middle
RRIRPRPPRLPRPRPRPIGPPRP; highest
RRIRLRPPRLPRPRPRPEWTPRP; highest
RRIRPRPPRLPRPRPRPIYFPRP; middle

// query Which bin, given its shrunken log2 fold change, does `RRIRIRPPRLPRPRPRPSQRPRP` occupy?
// result lowest

// query // next record `RRIRRRPPRLPRPRPRPQDNPRP`
// result lowest

// query // next record `RRIRNRPPRLPRPRPRPNWKPRP`
// result highest

// query // next record `RRIRSRPPRLPRPRPRPTYIPRP`
// result lowest

----------
tested on: Escherichia coli TOP10; experiment: shrunken log2 fold change of peptide-encoding DNA abundance (4.5 h post-induction vs induction); higher = less antimicrobial activity (less host growth inhibition); settings: time post-induction: 4.5 h; library: site-saturation at positions 5, 18, 19, 20;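 note: peptides expressed intracellularly from a pBAD plasmid library in pooled LB shake-flask culture, induced with 0.3% L-arabinose, DNA abundance read by NGS, three biological replicates, DESeq2 with apeglm shrinkage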
test_readout: shrunken log2 fold change
Keep the answer to the number alone.

// query Please give the measured shrunken log2 fold change for this sequence: `RRIRWRPPRLPRPRPRPWVEPRP`
// result 0.0386

// query // next record `RRIRERPPRLPRPRPRPCVLPRP`
// result 0.0248

// query // next record `RRIRRRPPRLPRPRPRPGQQPRP`
// result 0.119

// query // next record `RRIRARPPRLPRPRPRPDWGPRP`
// result 0.272

The reported measurements were obtained from the supplement of paper PMC9112550.
